Biological target: UniProt:P27467
Sequence (P27467 whole entry): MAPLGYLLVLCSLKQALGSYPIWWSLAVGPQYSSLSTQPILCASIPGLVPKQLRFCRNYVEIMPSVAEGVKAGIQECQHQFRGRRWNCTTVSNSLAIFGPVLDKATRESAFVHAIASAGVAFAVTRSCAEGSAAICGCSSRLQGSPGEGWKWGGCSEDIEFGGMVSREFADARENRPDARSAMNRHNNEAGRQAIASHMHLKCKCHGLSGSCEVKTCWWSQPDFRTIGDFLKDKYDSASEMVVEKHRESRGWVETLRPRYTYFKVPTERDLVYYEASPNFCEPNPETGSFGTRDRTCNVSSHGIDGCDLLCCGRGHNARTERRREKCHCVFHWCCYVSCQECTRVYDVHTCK
Experiment: Wnt3a-driven reporter signaling inhibition, dose response, selectivity assay for Gli-SUFU antagonist project, Wnt-LIGHT cells, luminescence (AID 651570);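 further: Wnt-LIGHT reporter cells stimulated with conditioned medium from Wnt3a-producing cells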
Type: functional
Settings: read-out: IC50_Mean
The source made the active and inactive calls. No stated cut-off is given here; in the data, active = IC50 of 20 µM or less and inactive = more.
Result category, one only: active, inactive

Given CC[N+](C)(CC)CCC(c1ccccc1)C1CCCCC1 (stereo unspecified) , state the outcome it received in this test.
inactive

For "CN(CCOc1ccc(Cl)cc1)C(=O)c1cccc(S(=O)(=O)N2CCN(c3ccc(F)cc3)CC2)c1" then?
active

Entry to check: "Cc1ccsc1CNc1ncnc2ccc(-c3c(C)noc3C)cc12"
active

What about "COc1ccc(-c2c(C#N)c(N)nc3c2CCc2ccccc2-3)cc1OC" ?
active

Subsequent entry: "CCN(CC)S(=O)(=O)c1ccc(S(=O)(=O)Nc2c(C)nn(C)c2C)cc1"
active

// repeat for "O=C(Nc1cccc(C(F)(F)F)c1)C1CCN(S(=O)(=O)c2ccc(N3CCCC3=O)cc2)CC1" and report
active

src = ChEMBL document CHEMBL1201862
